# Tested on: HIV-1 Subtype Isolates
# assay: Activity against HIV-1 subtype isolates in PBMCs, RT endpoint
# assay-conditions: Human immunodeficiency virus 1, PBMC, read-out: RT Endpoint IC50, isolate UG/92/024, subtype D
measurement-label: IC50 (nM)
Provide only the numeric value, understood in nM.

The reported IC50 of the compound CCCCCCCCCCCCCCCCOCCCOP(=O)(O)CO[C@H](C)Cn1cnc2c(N)ncnc21 [CMX157] was 0.3

* * *

# System: PBMCs
# assay: Cytotoxicity (TC50) in PBMCs
# Assay type: cell-based
# assay-conditions: isolate CMU08, subtype E; read-out: TC 50 (the source's name)
measurement-label: CC50

Record CCCCCCCCCCCCCCCCOCCCOP(=O)(O)CO[C@H](C)Cn1cnc2c(N)ncnc21 [CMX157] ; system PBMCs; CC50 = > 1000 nM

* * *

# System: HIV
# assay: microbe, parasite or virus in culture
# Type: cell-based
# assay-conditions: Human immunodeficiency virus 1, PANEL 26, 151M, no 184
pIC50: −log10 of the molar value.
Rule: pIC50 under 5 gives condition not met, otherwise condition met.

I'd appreciate it if you could say whether Cc1cn([C@H]2C[C@H](N=[N+]=[N-])[C@@H](CO)O2)c(=O)[nH]c1=O [ZDV, 3′-azido-2′,3′-dideoxythymdine] has pIC50 at least equal to 5. condition met

Hi, just wondering whether Cc1cn([C@H]2C=C[C@@H](CO)O2)c(=O)[nH]c1=O [d4T, 2′,3′-didehydro-3′-deoxythymidine] shows pIC50 of 5 or higher. condition met

Test whether the molecule OC[C@@H]1CC[C@H](n2cnc3c(O)ncnc32)O1 [ddI, 2′,3′-dideoxyinosine] records pIC50 of 5 or higher. condition not met

pIC50 >= 5 for Nc1nc(=O)n(C2CSC(CO)O2)cc1F (stereo not shown) [FTC] ? condition not met

Can CCCCCCCCCCCCCCCCOCCCOP(=O)(O)CO[C@H](C)Cn1cnc2c(N)ncnc21 [CMX157] be said to have pIC50 at or above 5? condition met

Check the entry Nc1ccn([C@@H]2CS[C@H](CO)O2)c(=O)n1 [3TC] : does pIC50 equal or exceed 5? condition not met

Reported pIC50 at or above 5? Nc1nc(NC2CC2)c2ncn([C@H]3C=C[C@@H](CO)C3)c2n1 [ABC, abacavir] condition not met

* * *

# Test system: HIV
# assay: microbe, parasite or virus in culture
# Type: cell-based
# assay-conditions: Human immunodeficiency virus 1, PANEL 30, M184V − SDM
pIC50: −log10 of the molar value.
Cut-off 6 on pIC50, inclusive. At or above means criterion met; below means criterion not met.

A selection of reference data follows.
{"compound": "Nc1nc(NC2CC2)c2ncn([C@H]3C=C[C@@H](CO)C3)c2n1", "group": "criterion not met"}
{"compound": "Cc1cn([C@H]2C[C@H](N=[N+]=[N-])[C@@H](CO)O2)c(=O)[nH]c1=O", "group": "criterion met"}
{"compound": "Nc1ccn([C@@H]2CS[C@H](CO)O2)c(=O)n1", "group": "criterion not met"}

Next compound, please.
Please indicate if the recorded pIC50 for Cc1cn([C@H]2C=C[C@@H](CO)O2)c(=O)[nH]c1=O [d4T, 2′,3′-didehydro-3′-deoxythymidine] meets or exceeds 6. criterion met
